Cited source: paper PMC11638965

Listed compounds paired with reported DC50
SUBJECT OF TEST: BRD2 (Homo sapiens, UniProt P25440)
Construct: HiBiT, is appended to the N-terminus of endogenous BRD2, BRD3, and BRD4; endogenous in cells
Sequence (P25440 whole entry): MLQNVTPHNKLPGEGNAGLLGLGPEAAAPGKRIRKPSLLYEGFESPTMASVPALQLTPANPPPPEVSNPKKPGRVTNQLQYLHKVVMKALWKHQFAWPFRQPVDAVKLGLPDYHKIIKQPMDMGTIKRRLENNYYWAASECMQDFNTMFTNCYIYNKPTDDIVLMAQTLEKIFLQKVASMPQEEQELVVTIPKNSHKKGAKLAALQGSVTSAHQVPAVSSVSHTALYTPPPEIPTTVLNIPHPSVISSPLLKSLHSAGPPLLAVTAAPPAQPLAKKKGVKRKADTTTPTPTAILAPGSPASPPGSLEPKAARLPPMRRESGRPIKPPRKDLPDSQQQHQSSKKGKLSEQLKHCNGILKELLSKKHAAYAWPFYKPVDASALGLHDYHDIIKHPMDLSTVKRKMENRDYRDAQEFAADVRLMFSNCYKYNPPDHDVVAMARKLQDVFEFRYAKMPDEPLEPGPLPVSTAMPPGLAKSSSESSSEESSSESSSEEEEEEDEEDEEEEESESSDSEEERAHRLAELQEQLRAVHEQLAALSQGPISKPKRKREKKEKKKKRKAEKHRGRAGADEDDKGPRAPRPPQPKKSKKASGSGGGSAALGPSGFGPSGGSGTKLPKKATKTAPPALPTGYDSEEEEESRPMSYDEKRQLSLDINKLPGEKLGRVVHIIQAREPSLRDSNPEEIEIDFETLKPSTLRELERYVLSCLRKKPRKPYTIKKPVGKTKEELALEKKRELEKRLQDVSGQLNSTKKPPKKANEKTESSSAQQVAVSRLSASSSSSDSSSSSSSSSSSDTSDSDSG
METHOD SUMMARY: Western blot dose-response degradation in HEK293 cells
Type: cell-based
CONDITION PARAMETERS: 6 h, mean ± S.E.M. of three experiments, values marked b mean ± S.D. of two
Unit nM implied. Number only.

Some solved cases for reference:
[[record]]
compound = "Cc1ncsc1-c1ccc(CNC(=O)[C@@H]2C[C@@H](O)CN2C(=O)[C@@H](NC(=O)COCC(COCCOCCOCCNc2cc3c(cc2F)C(=O)N(C2CCC(=O)NC2=O)C3=O)(COCCOCCOCCOC(=O)C[C@@H]2N=C(c3ccc(Cl)cc3)c3c(sc(C)c3C)-n3c(C)nnc32)COCCOCCOCCOC(=O)C[C@@H]2N=C(c3ccc(Cl)cc3)c3c(sc(C)c3C)-n3c(C)nnc32)C(C)(C)C)cc1 (mixture of isomers)"
result_value = 1

[[record]]
compound = "Cc1ncsc1-c1ccc(CNC(=O)[C@@H]2C[C@@H](O)CN2C(=O)[C@@H](NC(=O)COCC(C)(COCCOCCOCCNc2cccc3c2C(=O)N(C2CCC(=O)NC2=O)C3=O)COCCOCCOC(=O)C[C@@H]2N=C(c3ccc(Cl)cc3)c3c(sc(C)c3C)-n3c(C)nnc32)C(C)(C)C)cc1 (mixture of isomers)"
result_value = 75

[[record]]
compound = "Cc1ncsc1-c1ccc(CNC(=O)[C@@H]2C[C@@H](O)CN2C(=O)[C@@H](NC(=O)COCC(C)(COCCOCCOCCOC(=O)C[C@@H]2N=C(c3ccc(Cl)cc3)c3c(sc(C)c3C)-n3c(C)nnc32)COCCOCCOCCN2CCN(c3cccc4c3C(=O)N(C3CCC(=O)NC3=O)C4=O)CC2)C(C)(C)C)cc1 (mixture of isomers)"
result_value = 52


Query: Look up DC50 for this compound: Cc1ncsc1-c1ccc(CNC(=O)[C@@H]2C[C@@H](O)CN2C(=O)[C@@H](NC(=O)COCC(C)(COCCOCCOCCOC(=O)C[C@@H]2N=C(c3ccc(Cl)cc3)c3c(sc(C)c3C)-n3c(C)nnc32)COCCOCCOCCN2CCN(c3cc4c(cc3F)C(=O)N(C3CCC(=O)NC3=O)C4=O)CC2)C(C)(C)C)cc1 (mixture of isomers)
Reply: 28

----------
SUBJECT OF TEST: BRD2 (Homo sapiens, UniProt P25440)
Construct: HiBiT, is appended to the N-terminus of endogenous BRD2, BRD3, and BRD4; endogenous in cells
METHOD SUMMARY: Live cell kinetic HiBiT degradation assay, HiBiT-BRD2 HEK293 cells
Assay type: cell-based
CONDITION PARAMETERS: HiBiT-BRD2 knock-in HEK293 cells
Mark no for λmax BRD2 (degradation rate) values under 2 h⁻¹, and yes for everything at or above.

[[record]]
compound = "Cc1ncsc1-c1ccc([C@H](C)NC(=O)[C@@H]2C[C@@H](O)CN2C(=O)[C@@H](NC(=O)COCC(C)(COCCOCCOCCNc2cc3c(cc2F)C(=O)N(C2CCC(=O)NC2=O)C3=O)COCCOCCOCCOC(=O)C[C@@H]2N=C(c3ccc(Cl)cc3)c3c(sc(C)c3C)-n3c(C)nnc32)C(C)(C)C)cc1 (mixture of isomers)"
assigned_class = "yes"

[[record]]
compound = "Cc1ncsc1-c1ccc(CNC(=O)[C@@H]2C[C@@H](O)CN2C(=O)[C@@H](NC(=O)COCC(C)(COCCOCCOCCNc2cccc3c2C(=O)N(C2CCC(=O)NC2=O)C3=O)COCCOCCOCCOC(=O)C[C@@H]2N=C(c3ccc(Cl)cc3)c3c(sc(C)c3C)-n3c(C)nnc32)C(C)(C)C)cc1 (mixture of isomers)"
assigned_class = "no"

[[record]]
compound = "Cc1ncsc1-c1ccc(CNC(=O)[C@@H]2C[C@@H](O)CN2C(=O)[C@@H](NC(=O)COCC(C)(COCCOCCNc2cc3c(cc2F)C(=O)N(C2CCC(=O)NC2=O)C3=O)COCCOCCOCCOC(=O)C[C@@H]2N=C(c3ccc(Cl)cc3)c3c(sc(C)c3C)-n3c(C)nnc32)C(C)(C)C)cc1 (mixture of isomers)"
assigned_class = "yes"

[[record]]
compound = "Cc1ncsc1-c1ccc(CNC(=O)[C@@H]2C[C@@H](O)CN2C(=O)[C@@H](NC(=O)COCC(C)(COCCOCCOCCNc2cc3c(cc2F)C(=O)N(C2CCC(=O)NC2=O)C3=O)COCCOCCOCCOC(=O)C[C@@H]2N=C(c3ccc(Cl)cc3)c3c(sc(C)c3C)-n3c(C)nnc32)C(C)(C)C)cc1 (mixture of isomers)"
assigned_class = "no"

[[record]]
compound = "Cc1ncsc1-c1ccc(CNC(=O)[C@@H]2C[C@@H](O)CN2C(=O)[C@@H](NC(=O)COCC(C)(COCCOCCNc2cc3c(cc2F)C(=O)N(C2CCC(=O)NC2=O)C3=O)COCCOCCOC(=O)C[C@@H]2N=C(c3ccc(Cl)cc3)c3c(sc(C)c3C)-n3c(C)nnc32)C(C)(C)C)cc1 (mixture of isomers)"
assigned_class = "yes"


Query: Could you tell me if the measured λmax BRD2 (degradation rate) of Cc1ncsc1-c1ccc(CNC(=O)[C@@H]2C[C@@H](O)CN2C(=O)[C@@H](NC(=O)COCC(C)(COCCOCCOCCNc2cc3c(cc2F)C(=O)N(C2CCC(=O)NC2=O)C3=O)COCCOCCOC(=O)C[C@@H]2N=C(c3ccc(Cl)cc3)c3c(sc(C)c3C)-n3c(C)nnc32)C(C)(C)C)cc1 (mixture of isomers) reaches 2 h⁻¹ or more?
Reply: no

Query: In plain terms: is recorded λmax BRD2 (degradation rate) at least 2 h⁻¹ for Cc1ncsc1-c1ccc(CNC(=O)[C@@H]2C[C@@H](O)CN2C(=O)[C@@H](NC(=O)COCC(C)(COCCOCCOCCNc2cccc3c2C(=O)N(C2CCC(=O)NC2=O)C3=O)COCCOCCOC(=O)C[C@@H]2N=C(c3ccc(Cl)cc3)c3c(sc(C)c3C)-n3c(C)nnc32)C(C)(C)C)cc1 (mixture of isomers) ?
Reply: no

----------
System: RKO WT cells
METHOD SUMMARY: cells
Format: cell-based, human
CONDITION PARAMETERS: 500 pM to 10 μM, 3 days (Figure 10, Table S6); read-out: EC50 RKO WT
EXPERIMENTAL ENDPOINT: pEC50
Entry type: numeric. Quantity: pEC50, the -log10 of concentration in molar units.

Query: // pEC50 lookup, key: Cc1sc2c(c1C)C(c1ccc(Cl)cc1)=N[C@@H](CC(=O)NCCCCCCCCNC(=O)COc1cccc3c1C(=O)N(C1CCC(=O)NC1=O)C3=O)c1nnc(C)n1-2 (stereo partly shown) [dBET6, reference compound]
Reply: 6.59

----------
SUBJECT OF TEST: BRD4 (Homo sapiens)
METHOD SUMMARY: Live cell kinetic HiBiT degradation assay, HiBiT-BRD4 HEK293 cells (parental, CRBN KO, VHL KO)
Format: cell-based
CONDITION PARAMETERS: HiBiT-BRD4 knock-in HEK293 cells
Cut-off 2 h⁻¹ on λmax BRD4 (degradation rate), inclusive. At or above means y; below means n.

Query: Decide: λmax BRD4 (degradation rate) of Cc1ncsc1-c1ccc(CNC(=O)[C@@H]2C[C@@H](O)CN2C(=O)[C@@H](NC(=O)COCC(C)(COCCOCCNc2cc3c(cc2F)C(=O)N(C2CCC(=O)NC2=O)C3=O)COCCOCCOC(=O)C[C@@H]2N=C(c3ccc(Cl)cc3)c3c(sc(C)c3C)-n3c(C)nnc32)C(C)(C)C)cc1 (mixture of isomers) [AB3125 (30)] >= 2 h⁻¹?
Reply: n

Query: Exam item: decide whether the reported λmax BRD4 (degradation rate) for Cc1ncsc1-c1ccc([C@H](C)NC(=O)[C@@H]2C[C@@H](O)CN2C(=O)[C@@H](NC(=O)COCC(C)(COCCOCCOCCNc2cccc3c2C(=O)N(C2CCC(=O)NC2=O)C3=O)COCCOCCOCCOC(=O)C[C@@H]2N=C(c3ccc(Cl)cc3)c3c(sc(C)c3C)-n3c(C)nnc32)C(C)(C)C)cc1 (mixture of isomers) [AB3066 (24)] is at least 2 h⁻¹.
Reply: y

Query: Check if λmax BRD4 (degradation rate) >= 2 h⁻¹ (inclusive). Item: Cc1ncsc1-c1ccc(CNC(=O)[C@@H]2C[C@@H](O)CN2C(=O)[C@@H](NC(=O)COCC(C)(COCCOCCOCCNc2cccc3c2C(=O)N(C2CCC(=O)NC2=O)C3=O)COCCOCCOCCOC(=O)C[C@@H]2N=C(c3ccc(Cl)cc3)c3c(sc(C)c3C)-n3c(C)nnc32)C(C)(C)C)cc1 (mixture of isomers) [AB3062 (23)]
Reply: n

Query: Assess whether reported λmax BRD4 (degradation rate) for Cc1ncsc1-c1ccc(CNC(=O)[C@@H]2C[C@@H](O)CN2C(=O)[C@@H](NC(=O)COCC(C)(COCCOCCOCCNc2cccc3c2C(=O)N(C2CCC(=O)NC2=O)C3=O)COCCOCCOC(=O)C[C@@H]2N=C(c3ccc(Cl)cc3)c3c(sc(C)c3C)-n3c(C)nnc32)C(C)(C)C)cc1 (mixture of isomers) [AB3064 (25)] sits at 2 h⁻¹ or higher.
Reply: n

Query: Is it the case that Cc1ncsc1-c1ccc([C@H](C)NC(=O)[C@@H]2C[C@@H](O)CN2C(=O)[C@@H](NC(=O)COCC(C)(COCCOCCOCCNc2cc3c(cc2F)C(=O)N(C2CCC(=O)NC2=O)C3=O)COCCOCCOCCOC(=O)C[C@@H]2N=C(c3ccc(Cl)cc3)c3c(sc(C)c3C)-n3c(C)nnc32)C(C)(C)C)cc1 (mixture of isomers) [AB3067 (27)] has λmax BRD4 (degradation rate) reaching or exceeding 2 h⁻¹?
Reply: y

Query: Assess whether reported λmax BRD4 (degradation rate) for Cc1ncsc1-c1ccc(CNC(=O)[C@@H]2C[C@@H](O)CN2C(=O)[C@@H](NC(=O)COCC(C)(COCCOCCOCCNc2cc3c(cc2F)C(=O)N(C2CCC(=O)NC2=O)C3=O)COCCOCCOC(=O)C[C@@H]2N=C(c3ccc(Cl)cc3)c3c(sc(C)c3C)-n3c(C)nnc32)C(C)(C)C)cc1 (mixture of isomers) [AB3065 (28)] sits at 2 h⁻¹ or higher.
Reply: n
